# TESTED_SYSTEM: OCT1 Phe244Ala variant (Homo sapiens, UniProt O15245, F244A)
# ASSAY_REMARKS: Concentration-dependent uptake kinetics, HEK293 cells overexpressing OCT1 Phe244Ala;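 also: cells exposed to rising substrate concentrations in buffer, intracellular drug measured by HPLC-tandem mass spectrometry, quantified against a standard curve, uptake referenced to empty vector-transfected HEK293 controls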
# CONDITION_LABEL: OCT1 Phe244Ala; ratio of vmax over Km
TEST_READOUT: Clint

Below, each entry is followed by its recorded Clint result.
| COMPOUND | Clint |
| --- | --- |
| CC(C)[N+](C)(CCOC(=O)C1c2ccccc2Oc2ccccc21)C(C)C | 205 ± 124 ml × g Protein^−1 × min^−1 |
| CC(=O)OC(C)C[N+](C)(C)C (centres unmarked) | 3.03 ± 8.29 ml × g Protein^−1 × min^−1 |
| CC(CCc1ccc(O)cc1)NCCc1ccc(O)c(O)c1 (centres unmarked) | 7.88 ± 6.38 ml × g Protein^−1 × min^−1 |

I'm hoping you can list Clint for every compound here, please.
1. CN(C)C(=N)N=C(N)N
2. CN1CCN(CC(=O)N2c3ccccc3C(=O)Nc3cccnc32)CC1 [Pirenzepine]
3. Cc1ncc(C[n+]2csc(CCO)c2C)c(N)n1

Result block:
1.54 ± 2.02 ml × g Protein^−1 × min^−1
2.74 ± 2.15 ml × g Protein^−1 × min^−1
2.70 ± 5.44 ml × g Protein^−1 × min^−1

Please go through the list and note Clint for each compound.
1. NC(N)=Nc1nc(CSCCC(N)=NS(N)(=O)=O)cs1
2. CN(C)CCc1c[nH]c2ccc(C[C@H]3COC(=O)N3)cc12
3. CCN1CCCC1CNC(=O)c1cc(S(N)(=O)=O)ccc1OC (centres unmarked) [Sulpiride]
4. CC(C)(C)NCC(O)COc1cccc2c1CCC(=O)N2 (centres unmarked)

Result block:
12.1 ± 19.8 ml × g Protein^−1 × min^−1
13.3 ± 17.5 ml × g Protein^−1 × min^−1
4.01 ± 3.27 ml × g Protein^−1 × min^−1
7.82 ± 8.13 ml × g Protein^−1 × min^−1

For COc1cc(CCN)cc(OC)c1OC the compound record lists Clint as 0.91 ± 2.50 ml × g Protein^−1 × min^−1
